Target: GAL4 DBD-CfEcR(DEF)/VP16AD-MmRXRE (Choristoneura fumiferana, UniProt O77240)
Construct: The wild-type D, E, and F domains from spruce budworm Choristoneura fumiferana EcR (“CfEcR-DEF”)
Assay: 13B3 assay: luciferase reporter gene induction in stable CHO clone 13B3
Assay type: cell-based
Settings: 33/33.3 μM ligand, 48 h, RLU relative to DMSO
measure: Fold Induction Average, 13B3 assay
Just the number.

// query Fold Induction Average, 13B3 assay value for entry COc1ccccc1C1=NOC(C)(C)N1NC(=O)Nc1ccccc1 [RG-120025]
0.9

// query Fold Induction Average, 13B3 assay value for entry CC1(C)ON=C(c2ccc(OC(F)(F)F)cc2)N1NC(=O)c1ccccc1 [RG-120033]
0.9

// query Fold Induction Average, 13B3 assay value for entry CC1(C)ON=C(c2ccc(Cl)cc2)N1NC(=O)Nc1ccccc1 [RG-120067]
2.6

// query Fold Induction Average, 13B3 assay value for entry CC1(C)ON=C(c2ccc(Cl)cc2)N1NC(=O)c1ccco1 [RG-120082]
0.1

// query Fold Induction Average, 13B3 assay value for entry Cc1cccc(NC(=O)NN2C(c3cc(C)cc(C)c3)=NOC2(C)C)c1 [RG-120056]
0.1

// query Fold Induction Average, 13B3 assay value for entry COc1ccc(C2=NOC(C)(C)N2NC(=O)COCc2ccccc2)c(OC)c1 [RG-120110]
0.8

// query Fold Induction Average, 13B3 assay value for entry CC1(C)ON=C(c2cccc(C(F)(F)F)c2)N1NC(=O)COCc1ccccc1 [RG-120006]
1.1

// query Fold Induction Average, 13B3 assay value for entry CC1(C)ON=C(c2ccc(Cl)cc2)N1NC(=O)c1cc2ccccc2s1 [RG-120087]
0.4

// query Fold Induction Average, 13B3 assay value for entry COc1ccc(C2=NOC(C)(C)N2NC(=O)Nc2ccccc2)c(OC)c1 [RG-120114]
1.1

// query Fold Induction Average, 13B3 assay value for entry COc1ccccc1C1=NOC(C)(C)N1NC(=O)C(F)(F)C(F)(F)Cl [RG-120062]
0.2

// query Fold Induction Average, 13B3 assay value for entry CC1(C)ON=C(c2ccc3c(c2)OCO3)N1NC(=O)c1ccccc1 [RG-120156]
1.4

// query Fold Induction Average, 13B3 assay value for entry CC1(C)ON=C(c2ccc3c(c2)OCO3)N1NC(=O)Nc1ccccc1 [RG-120017]
0.8

// query Fold Induction Average, 13B3 assay value for entry CC1(C)ON=C(c2cccc(C(F)(F)F)c2)N1NC(=O)COc1ccccc1 [RG-120163]
1.1

// query Fold Induction Average, 13B3 assay value for entry CCOC(=O)CCC(=O)NN1C(c2cccc(C(F)(F)F)c2)=NOC1(C)C [RG-120153]
0.8

// query Fold Induction Average, 13B3 assay value for entry CCc1ccc(C(=O)NN2C(c3ccc(-c4ccccc4)cc3)=NOC2(C)C)cc1 [RG-120142]
0.3

// query Fold Induction Average, 13B3 assay value for entry COc1ccccc1C1=NOC(C)(C)N1NC(=O)COc1ccccc1 [RG-120057]
0.6

// query Fold Induction Average, 13B3 assay value for entry Cc1cccc(C(=O)NN2C(c3cc(C)cc(C)c3)=NOC2(C)C)c1 [RG-120077]
0.4

// query Fold Induction Average, 13B3 assay value for entry CC1(C)ON=C(c2ccc(Cl)cc2)N1NC(=O)Cc1ccccc1 [RG-120121]
0.1

// query Fold Induction Average, 13B3 assay value for entry CC1(C)ON=C(c2cccc(C(F)(F)F)c2)N1NC(=O)c1ccco1 [RG-120070]
0.4

// query Fold Induction Average, 13B3 assay value for entry CC1(C)ON=C(c2ccc(OC(F)(F)F)cc2)N1NC(=O)COc1ccccc1 [RG-120029]
1.5

// query Fold Induction Average, 13B3 assay value for entry CC1(C)ON=C(c2ccc(Cl)cc2)N1NC(=O)C(F)(F)C(F)(F)Cl [RG-120073]
0.9

// query Fold Induction Average, 13B3 assay value for entry CCc1c(OC)cccc1C(=O)NN1C(c2ccc(-c3ccccc3)cc2)=NOC1(C)C [RG-120020]
1.3

// query Fold Induction Average, 13B3 assay value for entry CCC1(C)ON=C(c2cc(C)cc(C)c2)N1NC(=O)COCc1ccccc1 (centres unmarked) [RG-120050]
0.9

// query Fold Induction Average, 13B3 assay value for entry CC1(C)ON=C(c2ccc3c(c2)OCO3)N1NC(=O)COc1ccccc1 [RG-120127]
0.6

// query Fold Induction Average, 13B3 assay value for entry CC1(C)ON=C(c2ccc3c(c2)OCO3)N1NC(=O)c1cc2ccccc2s1 [RG-120140]
1.4

// query Fold Induction Average, 13B3 assay value for entry COc1ccccc1C1=NOC(C)(C)N1NC(=O)COCc1ccccc1 [RG-120018]
0.8
